test system: DMS 273 small cell lung; assay: NCI tumour cell line growth inhibition, 48 h
The entries below are paired with their reported TGI.

molecule	TGI
NC1=C(O)/C(=N/NS(=O)(=O)c2ccccc2)C(c2ccc3c(c2)OCO3)O1 (stereo unspecified)	> 100 µM
OCC1CC2C=CCC(C2)C1 (stereo unspecified)	> 100 µM
COc1ccc2c(c1)c1ccc3c(c1n2C)C(=O)C=CC3=O	> 56.3 µM
Cc1ccc([N+](=O)[O-])cc1NC(=O)C(=O)Cc1nc2ccc(C(=O)c3ccccc3)cc2[nH]c1=O	> 100 µM
COC(=O)CC(C(C(=O)OCc1ccccc1)C(C)O)N1C(=O)OCC1c1ccccc1 (stereo unspecified)	> 100 µM
O=[N+]([O-])c1cc(I)cc(/C=N/NS(=O)(=O)c2ccc(F)cc2)c1O	48.8 µM
CC(=O)NNc1ncc(C(=O)/C=C/c2ccccc2C)s1	> 100 µM
C/C(=N\N)C(CN1CCOCC1)C(c1ccccc1)c1c(O)c2ccccc2oc1=O (stereo unspecified)	> 100 µM
N=C1c2ccccc2C(=O)c2c(NCCNCCO)ccc(O)c21	18.9 µM
COc1cccc(/C=C2\N=C(Cl)OC2=O)c1O	> 100 µM
C=C1C2CC(OC(C)=O)C3(C)C(c4ccoc4)OC(=O)[C@@H](O)[C@]13OC1C[C@H](OC(C)=O)C(C)(C)[C@H](C(O)C(=O)OC)[C@]12C (stereo partly specified)	> 100 µM

---

test system: K-562 leukemia; assay: NCI tumour cell line growth inhibition, 48 h
Item-by-item account of TGI
measurement-kind: TGI

molecule	test-system	reading
Nc1ccc(C(=O)CC2(O)C(=O)Nc3ccccc32)cc1 (stereo not drawn)	K-562 leukemia	> 100 µM
CCCC[C@H](CCc1ccccc1)N(C(=O)OC)N1CCC[C@H]1COC	K-562 leukemia	61.2 µM
CO[C@H]1/C=C/O[C@@]2(C)Oc3c(C)c(O)c4c(O)c(c(/C=N/N5C(C)CN(Cc6ccc(C#N)cc6)CC5C)c(O)c4c3C2=O)NC(=O)/C(C)=C\C=C\[C@H](C)[C@H](O)[C@@H](C)[C@@H](O)[C@@H](C)[C@H](OC(C)=O)[C@@H]1C (stereo partly drawn)	K-562 leukemia	25.3 µM
CC1(C)N=C(N)N=C(N)N1c1cccc(CCCCc2ccc(Cl)c(S(=O)(=O)F)c2)c1	K-562 leukemia	15.2 µM
CS(=O)(=O)c1ccc(C(=O)O[C@@H]2C(=O)N3CC[C@H]4OC(O)[C@@H]2[C@H]43)cc1 (stereo partly drawn)	K-562 leukemia	> 100 µM
Cc1nc(-c2cccnc2)sc1C(=O)CC(=O)C(=O)Nc1cccc(NC(=O)C(=O)CC(=O)c2sc(-c3cccnc3)nc2C)n1	K-562 leukemia	> 100 µM
CCCC(=O)Nc1cc(/C=C/C(=O)N2CC(CCl)c3ccc([N+](=O)[O-])cc32)n(C)c1 (stereo not drawn)	K-562 leukemia	> 100 µM
O=C(O)C(Cc1ccccc1)N=Cc1nc(-c2ccccc2)oc1O (stereo not drawn)	K-562 leukemia	> 100 µM

---

The following compounds are listed with their measured TGI values.
test system: EKVX NSCLC; assay: NCI tumour cell line growth inhibition, 48 h
measurement-kind: TGI

compound	test-system	reading
O=C(O)C(Cc1ccccc1)N=Cc1nc(-c2ccccc2)oc1O (stereo not given)	EKVX NSCLC	> 100 µM
COc1nc2c(c(=O)[nH]1)N=C(c1ccccc1)CC(c1ccccc1)N2 (stereo not given)	EKVX NSCLC	> 100 µM
C[C@@H](c1ccccc1)N1C[C@@H](c2ccc3c(c2)OCO3)[C@@H]2C(=O)CCC[C@@H]21	EKVX NSCLC	> 100 µM
Cc1cccc2c(=O)c3c(sc12)c(NCCCN)nc1ccccc13	EKVX NSCLC	3.14 µM
CC1=C(C(=O)O)N2C(=O)[C@@H](NC(=O)C(c3ccccc3)N3CSC(=S)N(C(C)C)C3)C2SC1 (stereo not given in full)	EKVX NSCLC	> 100 µM
